Hello, the source for this data is ChEMBL document CHEMBL1135915, in case you need it.

Target Desc: Alpha-1A adrenergic receptor (Homo sapiens, UniProt P35348)
Sequence (P35348 whole entry): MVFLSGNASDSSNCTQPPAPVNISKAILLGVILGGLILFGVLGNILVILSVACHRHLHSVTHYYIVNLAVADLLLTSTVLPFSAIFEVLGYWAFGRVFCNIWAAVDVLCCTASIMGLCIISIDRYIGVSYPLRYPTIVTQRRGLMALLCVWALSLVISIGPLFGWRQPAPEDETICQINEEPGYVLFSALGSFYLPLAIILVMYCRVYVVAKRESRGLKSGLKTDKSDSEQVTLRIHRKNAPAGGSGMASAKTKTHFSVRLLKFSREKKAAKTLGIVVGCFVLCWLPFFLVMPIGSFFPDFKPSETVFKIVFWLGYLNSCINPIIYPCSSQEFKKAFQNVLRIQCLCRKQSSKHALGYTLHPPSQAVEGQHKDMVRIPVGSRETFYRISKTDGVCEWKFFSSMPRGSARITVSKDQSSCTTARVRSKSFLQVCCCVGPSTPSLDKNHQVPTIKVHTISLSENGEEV
Assay Name: Affinity constant on CHO cells expressing Human recombinant Alpha-1A adrenergic receptor
Experimental Readout: Ki (nM)

[[record]]
compound = "COc1cccc(OC)c1OCCNCC1Cc2ccccc2C(c2ccccc2)C1 (stereo unspecified)"
test_value = 0.513

[[record]]
compound = "COc1cccc(OC)c1OCCNC[C@H]1C[C@H](c2ccccc2)c2ccccc2S1"
test_value = 2.34

[[record]]
compound = "COc1cccc(OC)c1OCCNCC1CC(c2ccccc2)c2ccccc2S1 (stereo unspecified)"
test_value = 0.0891

[[record]]
compound = "COc1cccc(OC)c1OCCNCCOc1ccccc1Cc1ccccc1"
test_value = 0.398

[[record]]
compound = "COc1cccc(OC)c1OCCNCC1CC(c2ccccc2)c2ccccc2C1=O (stereo unspecified)"
test_value = 0.251

[[record]]
compound = "COc1cccc(OC)c1OCCNC[C@@H]1C[C@H](c2ccccc2)c2ccccc2O1"
test_value = 0.0501

